// provenance: patent US10344035B2

- assay-explanation: Pharmacokinetic study in rats
- test-settings: SD (Sprague-Dawley), rat, plasma, oral, 20 μmol/kg, Plasma concentration Rat 3, SD rats, intragastric 20 μmol/kg, 720 min, Rat 3
Structures can show the parent of a compound that is named as a salt.
attribute-measured: concentration at 720 min (nM)
Use nM as the unit, but write only the number.

Tell me the measured concentration at 720 min of CNC(=O)c1ccc(-c2cnc3ncc(Cc4ccc5ncccc5c4)n3n2)cc1F [INCB28060 hydrochloride] , please.
25.7

---

- assay-explanation: Pharmacokinetic study in rats
- test-settings: SD, rat, plasma, po, 20 umol/kg, MRT, SD rats, intragastric
- Procedure: All stock solutions of the test compound were sonicated and heated to become clarified and formulated to a 25 mM solution with DMSO. All samples were dosed at 20 μmol/kg. The blood sample was centrifuged at 8000 rpm for 5 min, the plasma was collected in a centrifuge tube and stored at −20° C. for use. Treatment of the plasma sample: the proteins in 50 μL plasma sample were precipitated with 200 μL acetonitrile containing internal standard (Propranolol (PRO), 2.5 ng/mL). […]
Where a name gives a salt, the structure may show the parent alone.
attribute-measured: MRT
# include the unit after the value

Tell me the measured MRT of CNC(=O)c1ccc(-c2cnc3ncc(Cc4ccc5ncccc5c4)n3n2)cc1F [INCB28060 hydrochloride] , please.
4.53 h
